Recorded values, source ChEMBL document CHEMBL4811320.

MEASURED_TARGET: Amyloid-beta precursor protein (Homo sapiens)
Sequence (P05067 whole entry): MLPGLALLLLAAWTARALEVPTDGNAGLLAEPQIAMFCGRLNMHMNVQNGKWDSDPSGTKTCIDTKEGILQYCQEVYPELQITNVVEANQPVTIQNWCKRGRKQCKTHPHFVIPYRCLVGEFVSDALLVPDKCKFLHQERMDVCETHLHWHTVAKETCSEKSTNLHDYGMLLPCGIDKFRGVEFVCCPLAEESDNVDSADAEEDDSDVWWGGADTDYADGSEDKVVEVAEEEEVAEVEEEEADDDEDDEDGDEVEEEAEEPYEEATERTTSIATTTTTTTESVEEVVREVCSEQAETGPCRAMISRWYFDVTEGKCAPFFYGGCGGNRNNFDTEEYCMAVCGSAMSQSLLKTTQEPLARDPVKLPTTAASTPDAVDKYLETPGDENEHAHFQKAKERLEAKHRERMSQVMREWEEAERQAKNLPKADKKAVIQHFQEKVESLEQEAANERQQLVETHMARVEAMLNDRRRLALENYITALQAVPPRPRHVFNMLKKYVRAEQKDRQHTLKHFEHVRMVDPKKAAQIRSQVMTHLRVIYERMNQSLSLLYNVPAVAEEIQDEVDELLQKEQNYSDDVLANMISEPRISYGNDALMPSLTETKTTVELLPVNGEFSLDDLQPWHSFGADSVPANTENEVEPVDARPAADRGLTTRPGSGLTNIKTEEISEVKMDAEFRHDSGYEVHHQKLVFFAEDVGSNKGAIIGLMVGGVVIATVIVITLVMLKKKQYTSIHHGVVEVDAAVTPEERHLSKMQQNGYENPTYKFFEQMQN
TEST_PROTOCOL: Inhibition of amyloid beta (1 to 42) (unknown origin) self-induced aggregation at 20 uM incubated for 24 hrs by Thioflavin T based fluorometric assay relative to control
MEASURE: inhibition (%)

Sample records with inhibition:
Cn1cc(O)c(=O)cc1/C=C/c1ccc(OCCCN2CCCC2)cc1 :: 85.4
Oc1cccc2ccc(/C=C/c3ccc(OCCCN4CCCCC4)cc3)nc12 :: 15.7
Cn1cc(O)c(=O)cc1/C=C/c1ccc(OCCCN2CCCCC2)cc1 :: 87
CN1CCN(CCCOc2ccc(/C=C/c3cc(=O)c(O)cn3C)cc2)CC1 :: 75.7
CCN(CC)CCCOc1ccc(/C=C/c2cc(=O)c(O)co2)cc1 :: 94.6

I = Cn1cc(O)c(=O)cc1/C=C/c1ccc(OCCCN2CCOCC2)cc1
II = Oc1cccc2ccc(/C=C/c3ccc(OCCCN4CCCC4)cc3)nc12
Lookup: Please let me know which one, I or II , has a lower measured inhibition value. Please reply using the label of the selected record.
Found: II
